Data origin: patent US9682985B2

targetOrTestSystem: recombinant human Nav1.7 (Homo sapiens)
Construct: expressed in transfected cells; host or cells: HEK293
Sequence (Q15858 whole entry): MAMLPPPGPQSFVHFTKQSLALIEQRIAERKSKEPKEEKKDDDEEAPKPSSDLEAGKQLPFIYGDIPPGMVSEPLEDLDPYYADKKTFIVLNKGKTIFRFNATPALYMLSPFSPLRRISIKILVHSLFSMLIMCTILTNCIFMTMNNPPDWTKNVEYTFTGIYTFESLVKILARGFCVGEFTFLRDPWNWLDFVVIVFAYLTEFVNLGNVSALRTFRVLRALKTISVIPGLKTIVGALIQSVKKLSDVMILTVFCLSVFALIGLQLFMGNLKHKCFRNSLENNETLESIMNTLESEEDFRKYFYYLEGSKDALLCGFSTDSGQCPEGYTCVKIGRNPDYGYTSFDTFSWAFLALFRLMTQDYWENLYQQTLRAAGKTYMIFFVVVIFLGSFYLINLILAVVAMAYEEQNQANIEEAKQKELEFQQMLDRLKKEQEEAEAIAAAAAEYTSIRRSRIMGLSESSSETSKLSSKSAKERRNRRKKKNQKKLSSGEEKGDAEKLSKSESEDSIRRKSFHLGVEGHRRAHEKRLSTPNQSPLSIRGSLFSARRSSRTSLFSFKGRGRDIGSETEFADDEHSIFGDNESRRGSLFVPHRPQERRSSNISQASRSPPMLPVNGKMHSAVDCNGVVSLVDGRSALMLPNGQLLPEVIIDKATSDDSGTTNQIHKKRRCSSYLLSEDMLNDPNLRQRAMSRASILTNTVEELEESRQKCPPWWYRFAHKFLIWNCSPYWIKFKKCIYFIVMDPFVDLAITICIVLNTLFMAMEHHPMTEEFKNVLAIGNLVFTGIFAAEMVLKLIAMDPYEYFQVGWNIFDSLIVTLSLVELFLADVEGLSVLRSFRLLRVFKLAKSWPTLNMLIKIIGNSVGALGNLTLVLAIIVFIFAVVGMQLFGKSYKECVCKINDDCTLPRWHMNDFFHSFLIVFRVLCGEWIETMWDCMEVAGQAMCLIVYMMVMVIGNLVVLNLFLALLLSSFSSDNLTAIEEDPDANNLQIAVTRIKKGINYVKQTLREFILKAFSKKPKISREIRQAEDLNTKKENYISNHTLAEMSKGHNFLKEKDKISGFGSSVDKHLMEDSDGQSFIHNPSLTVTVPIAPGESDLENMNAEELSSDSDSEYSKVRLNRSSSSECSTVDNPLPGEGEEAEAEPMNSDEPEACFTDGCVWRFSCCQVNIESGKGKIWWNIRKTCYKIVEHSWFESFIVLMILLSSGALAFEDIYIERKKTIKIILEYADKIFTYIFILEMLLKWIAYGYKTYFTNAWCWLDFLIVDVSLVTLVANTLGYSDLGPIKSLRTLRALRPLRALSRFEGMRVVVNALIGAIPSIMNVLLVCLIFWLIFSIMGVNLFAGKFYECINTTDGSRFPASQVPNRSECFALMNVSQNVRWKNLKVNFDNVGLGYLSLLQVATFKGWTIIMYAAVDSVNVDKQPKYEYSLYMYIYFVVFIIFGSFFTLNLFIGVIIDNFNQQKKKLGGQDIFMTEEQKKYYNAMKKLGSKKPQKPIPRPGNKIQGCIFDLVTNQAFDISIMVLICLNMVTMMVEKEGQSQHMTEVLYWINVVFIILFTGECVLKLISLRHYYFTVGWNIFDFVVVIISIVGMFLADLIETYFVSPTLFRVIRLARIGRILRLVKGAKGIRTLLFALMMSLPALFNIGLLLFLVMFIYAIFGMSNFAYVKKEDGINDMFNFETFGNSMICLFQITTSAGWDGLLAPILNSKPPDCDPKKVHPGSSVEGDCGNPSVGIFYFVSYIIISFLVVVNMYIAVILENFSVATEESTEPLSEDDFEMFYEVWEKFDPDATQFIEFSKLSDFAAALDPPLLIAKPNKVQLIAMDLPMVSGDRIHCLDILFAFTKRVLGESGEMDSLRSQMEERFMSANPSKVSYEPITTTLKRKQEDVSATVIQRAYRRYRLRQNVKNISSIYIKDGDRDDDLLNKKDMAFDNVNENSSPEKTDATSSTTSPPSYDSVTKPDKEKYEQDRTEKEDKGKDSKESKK
assayMethodText: FRET-based membrane potential assay, Nav1.7
Assay type: cell-based
runConditions: HEK293 cells expressing recombinant human Nav1.7; veratridine + scorpion venom depolarization
readout: pIC50
Recall that pIC50 is obtained by taking minus log10 of the concentration measured in molar.

Consider the reported pIC50 for these compounds:
Item under review: CC(C)(O)C(=O)N1CC[C@@H]2CN(c3cccc4c3cnn4-c3ccccc3F)C(=O)[C@@H]21 [Example 47] . Reported pIC50?
5.51

Item under review: CC(C)(C)OC(=O)N1CCC(S(=O)(=O)N2CC3CN(c4cccc5c4cnn5-c4ccccc4F)C(=O)C3C2)CC1 (stereo not shown) . Reported pIC50?
5.44

Item under review: `CS(=O)(=O)N1C[C@@H]2CN(c3cccc4c3cnn4-c3ccccc3F)C(=O)[C@@H]2C1` . Reported pIC50?
5.17

Item under review: `O=C1[C@@H]2CN(S(=O)(=O)CCC(F)(F)F)C[C@@H]2CN1c1cccc2c1cnn2-c1ccccc1F` . Reported pIC50?
5.53

Item under review: O=C1[C@H]2[C@H](CCN2C(=O)C2(O)CC2)CN1c1cccc2c1cnn2-c1ccccc1F [Example 48] . Reported pIC50?
6.23

***
Item under review: `C[C@@H](O)CC(=O)N1C[C@@H]2CN(c3cccc4c3cnn4-c3ccccc3F)C(=O)[C@@H]2C1` . Reported pIC50?
4.83
